# Assayed target: ORAI 1/2/3 (Homo sapiens, UniProt Q96D31+Q96SN7+Q9BRQ5)
# Test description: Inhibition of ORAl1/2/3 in HEK293 cells assessed as inhibition of Cd2+ influx after 10 mins by FLIPR assay in presence of thapsigargin
# Assay type: cell-based
Would you mind telling me the reported IC50 of each entry?
Numbers only, in µM.

>>> df
                                   molecule                            assayed_target  quantity_name  units_text  value_measured
0  Fc1ccc([B-]2(c3ccccc3)[NH2+]CCO2)cc1 (stereo unspecified)  ORAI 1/2/3 (Homo sapiens, UniProt Q96D31+Q96SN7+Q9BRQ5)           IC50          µM             9.8
1     COc1ccccc1[B-]1(c2ccccc2OC)[NH2+]CCO1  ORAI 1/2/3 (Homo sapiens, UniProt Q96D31+Q96SN7+Q9BRQ5)           IC50          µM            10.5
2  Cc1ccc([B-]2(c3ccccc3)[NH2+]CCO2)cc1 (stereo unspecified)  ORAI 1/2/3 (Homo sapiens, UniProt Q96D31+Q96SN7+Q9BRQ5)           IC50          µM             2.7

Lab note: each molecule below needs its IC50 filled in.
1. Brc1ccc([B-]2(c3ccccc3)[NH2+]CCO2)cc1 (stereo unspecified)
2. c1ccc([B-]2(c3ccccc3)[NH2+]CCCO2)cc1
3. Cc1ccccc1[B-]1(c2ccccc2)[NH2+]CCO1 (stereo unspecified)

A.
1: 4.9; 2: 8.2; 3: 9.9

---

# Assayed target: Transient receptor potential cation channel subfamily V member 6 (Homo sapiens, UniProt Q9H1D0)
# Sequence (Q9H1D0 whole entry): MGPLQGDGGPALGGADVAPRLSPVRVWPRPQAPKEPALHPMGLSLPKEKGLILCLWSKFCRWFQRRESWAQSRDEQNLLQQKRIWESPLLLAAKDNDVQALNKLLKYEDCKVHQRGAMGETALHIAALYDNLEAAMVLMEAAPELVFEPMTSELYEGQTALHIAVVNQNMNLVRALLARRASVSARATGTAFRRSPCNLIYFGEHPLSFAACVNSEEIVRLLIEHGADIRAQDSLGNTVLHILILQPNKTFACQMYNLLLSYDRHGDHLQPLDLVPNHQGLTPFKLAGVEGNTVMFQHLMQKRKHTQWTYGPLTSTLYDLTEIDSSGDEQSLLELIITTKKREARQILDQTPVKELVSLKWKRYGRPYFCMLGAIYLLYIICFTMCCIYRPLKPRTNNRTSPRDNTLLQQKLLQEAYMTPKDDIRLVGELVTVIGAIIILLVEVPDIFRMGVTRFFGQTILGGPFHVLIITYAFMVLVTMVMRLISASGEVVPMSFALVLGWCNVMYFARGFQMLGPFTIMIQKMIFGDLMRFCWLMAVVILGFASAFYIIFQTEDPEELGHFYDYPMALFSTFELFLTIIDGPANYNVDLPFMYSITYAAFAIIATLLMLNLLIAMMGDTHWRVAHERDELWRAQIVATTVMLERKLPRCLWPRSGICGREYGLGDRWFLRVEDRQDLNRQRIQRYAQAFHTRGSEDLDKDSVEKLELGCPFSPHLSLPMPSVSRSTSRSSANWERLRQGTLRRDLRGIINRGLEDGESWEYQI
# Test description: Inhibition of human TRPV6 transfected in HEK293 cells assessed as inhibition of Ca2+ influx after 5 mins by FLIPR assay
# Assay type: cell-based
Note to self: IC50 under 20 µM means Y, ties and anything higher get N.

>>> df
                                   molecule  assigned_label
0                Cc1ccc(B(O)c2ccc(C)cc2)cc1               Y
1   Cc1ccc([B-]2(c3ccc(C)cc3)[NH2+]CCO2)cc1               Y
2  c1ccc([B-]2(c3ccccc3)OCC[N+]23CCNCC3)cc1               Y

Q. Quick check: does Cc1ccccc1[B-]1(c2ccccc2)[NH2+]CCO1 (stereo not drawn) have IC50 under 20 µM?
A. N

Q. Input "COc1ccc([B-]2(c3ccc(OC)cc3)[NH2+]CCO2)cc1" ; condition: IC50 strictly below 20 µM. Does it hold?
A. N

Q. Dear colleague, could you confirm whether IC50 of "OB1c2ccccc2CCc2ccccc21" falls below 20 µM? Thanks.
A. N

Q. Does the reported IC50 of "c1ccc(B(OB(c2ccccc2)c2ccccc2)c2ccccc2)cc1" stay below 20 µM?
A. Y

---

Please provide measured log10 of IC50 for the entries that follow.
# Assayed target: ORAI 1/2/3 (Homo sapiens, UniProt Q96D31+Q96SN7+Q9BRQ5)
# Test description: Inhibition of ORAl1/2/3 in HEK293 cells assessed as inhibition of Cd2+ influx after 10 mins by FLIPR assay in presence of thapsigargin
# Type: cell-based
Heads up, the numbers here are log10 of IC50 in µM units.

Some molecules with known log10 of IC50 results, for comparison:
>>> df
                                   molecule  quantity_name  value_measured
0  CCCCc1ccc([B-]2(c3ccccc3)[NH2+]CCO2)cc1 (configuration not stated)  log10 of IC50            0.38
1   Fc1ccc([B-]2(c3ccc(F)cc3)[NH2+]CCO2)cc1  log10 of IC50            0.77
2  O=C1O[B-](c2ccccc2)(c2ccccc2)[NH2+][C@H]1CO  log10 of IC50            0.99

Look at each molecule and report its log10 of IC50.
1. c1ccc([B-]2(c3ccccc3)OC[C@@H]3CCC[NH+]32)cc1 (some centres not stated)
2. Cc1ccc(B(O)c2ccc(C)cc2)cc1
3. c1ccc([B-]2(c3ccccc3)OCC[N+]23CCNCC3)cc1
4. NCCOC(c1ccccc1)c1ccccc1

A.
[1.01, 1.41, 0.34, 2.27]

Fill in log10 of IC50 for each of the 4 molecules listed.
1. c1ccc([B-]2(c3ccccc3)[NH2+]CCO2)cc1
2. C[N+]1(C)CCO[B-]1(c1ccccc1)c1ccccc1
3. OB(c1ccccc1)c1ccc(Cl)cc1
4. O=C1O[B-](c2ccccc2)(c2ccccc2)[NH2+][C@H]1Cc1c[nH]c2ccccc12

A.
1. 1.08
2. 0.71
3. 0.81
4. 1.17

---

What IC50 was measured for each of the following?
# Assayed target: ORAI 1/2/3 (Homo sapiens, UniProt Q96D31+Q96SN7+Q9BRQ5)
# Test description: Inhibition of ORAl1/2/3 in HEK293 cells assessed as inhibition of Ca2+ influx after 10 mins by FLIPR assay in presence of thapsigargin
# Type: cell-based
Give bare numbers, in µM.

Observe how each entry below is paired with its result.
>>> print(df.to_string())
                                   compound  units_text  value_measured
0                    OB1c2ccccc2CCc2ccccc21          µM            33.3
1                  OB(c1ccccc1)c1ccc(Cl)cc1          µM            21.8
2  c1ccc(B(OB(c2ccccc2)c2ccccc2)c2ccccc2)cc1          µM            11.4
3  c1ccc([B-]2(c3ccccc3)OCC[N+]23CCNCC3)cc1          µM               6
4  Brc1ccc([B-]2(c3ccccc3)[NH2+]CCO2)cc1 (stereo unspecified)          µM             3.4

I would be grateful if you could provide IC50 for each of the following entries.
1. COc1ccccc1[B-]1(c2ccccc2OC)[NH2+]CCO1
2. Cc1ccc([B-]2(c3ccccc3)[NH2+]CCO2)s1 (stereo unspecified)
3. Cc1ccccc1[B-]1(c2ccccc2)[NH2+]CCO1 (stereo unspecified)
4. OB(c1ccc(F)cc1)c1ccc(F)cc1
5. Fc1ccc([B-]2(c3ccc(F)cc3)[NH2+]CCO2)cc1
6. OB(c1ccccc1)c1ccccc1
7. Cc1ccc([B-]2(c3ccccc3)[NH2+]CCO2)cc1 (stereo unspecified)
8. c1ccc([B-]2(c3ccccc3)OCc3cccc[n+]32)cc1

A.
1: 11.6; 2: 30.9; 3: 10; 4: 26.6; 5: 9; 6: 9.8; 7: 8.6; 8: 10.7

Quick one: give me IC50 for each item below, same order please.
1. Cc1ccc(B(O)c2ccc(C)cc2)cc1
2. COc1ccccc1B(O)c1ccccc1OC

A.
[23, 13.2]

Provide IC50 values for the following items, in order.
1. O=C1O[B-](c2ccccc2)(c2ccccc2)[NH2+][C@H]1Cc1c[nH]c2ccccc12
2. O=C1O[B-](c2ccccc2)(c2ccccc2)[NH2+][C@H]1CO
3. c1ccc(-c2ccc([B-]3(c4ccccc4)[NH2+]CCO3)cc2)cc1 (stereo unspecified)
4. Fc1ccc([B-]2(c3ccccc3)[NH2+]CCO2)cc1 (stereo unspecified)
5. NCCOC(c1ccccc1)c1ccccc1
6. c1ccc([B-]2(c3ccccc3)OC[C@@H]3CCC[NH+]32)cc1 (stereo partly specified)

A.
6.9
40.5
13.4
9.3
106
8.9

---

Give log10 IC50 for every item shown.
# Assayed target: UniProtKB Q9H1D0
# Test description: Inhibition of human TRPV6 transfected in HEK293 cells assessed as inhibition of Ca2+ influx after 5 mins by FLIPR assay
# Assay type: cell-based
Log scale reminder: IC50 in µM, then log10 taken.

                                   compound  value_measured
0  Brc1ccc([B-]2(c3ccccc3)[NH2+]CCO2)cc1 (stereo not given)            1.12
1  OB(c1ccc(C(F)(F)F)cc1)c1ccc(C(F)(F)F)cc1            1.03
2  Cc1ccc([B-]2(c3ccccc3)[NH2+]CCO2)cc1 (stereo not given)            1.28
3                      OB(c1ccccc1)c1ccccc1            1.28
4     O=C1C[NH2+][B-](c2ccccc2)(c2ccccc2)O1            1.11
5  c1ccc([B-]2(c3ccccc3)OC[C@H]3CCC[NH+]32)cc1 (stereo not given in full)            1.27
6  Ic1ccc([B-]2(c3ccccc3)[NH2+]CCO2)cc1 (stereo not given)            0.73
7   c1ccc([B-]2(c3ccccc3)OCc3cccc[n+]32)cc1            1.54

List the reported log10 IC50 of each compound below.
1. C[N+]1(C)CCO[B-]1(c1ccccc1)c1ccccc1
2. O=C1O[B-](c2ccccc2)(c2ccccc2)[NH2+][C@H]1CO
3. c1ccc([B-]2(c3ccccc3)[NH2+]CCO2)cc1
4. c1ccc([B-]2(c3ccccc3)OC[C@@H]3CCC[NH+]32)cc1 (stereo not given in full)
5. Cc1ccc([B-]2(c3ccccc3)[NH2+]CCO2)s1 (stereo not given)
6. OB(c1ccc(F)cc1)c1ccc(F)cc1

A.
1: 1.80; 2: 1.56; 3: 1.32; 4: 1.27; 5: 1.09; 6: 1.57

Provide each entry's log10 IC50 from the list below.
1. OB(c1ccccc1)c1ccc(Cl)cc1
2. Fc1ccc([B-]2(c3ccc(F)cc3)[NH2+]CCO2)cc1
3. c1ccc(-c2ccc([B-]3(c4ccccc4)[NH2+]CCO3)cc2)cc1 (stereo not given)

A.
1: 0.99; 2: 1.23; 3: 1.86

Below is a list of compounds. For each, state its recorded log10 IC50.
1. c1ccc([B-]2(c3ccccc3)[NH2+]CCCO2)cc1
2. FC(F)(F)c1ccc([B-]2(c3ccc(C(F)(F)F)cc3)[NH2+]CCO2)cc1

A.
1.21
1.21

Q. // log10 IC50 lookup, key: "OB(c1ccccc1)c1ccc(C(F)(F)F)cc1"
A. 1.05
